# Tested On: VLA-4 (Homo sapiens, UniProt P05556+P13612)
# Construct: endogenous in cells
# Sequence (P13612 34-1032): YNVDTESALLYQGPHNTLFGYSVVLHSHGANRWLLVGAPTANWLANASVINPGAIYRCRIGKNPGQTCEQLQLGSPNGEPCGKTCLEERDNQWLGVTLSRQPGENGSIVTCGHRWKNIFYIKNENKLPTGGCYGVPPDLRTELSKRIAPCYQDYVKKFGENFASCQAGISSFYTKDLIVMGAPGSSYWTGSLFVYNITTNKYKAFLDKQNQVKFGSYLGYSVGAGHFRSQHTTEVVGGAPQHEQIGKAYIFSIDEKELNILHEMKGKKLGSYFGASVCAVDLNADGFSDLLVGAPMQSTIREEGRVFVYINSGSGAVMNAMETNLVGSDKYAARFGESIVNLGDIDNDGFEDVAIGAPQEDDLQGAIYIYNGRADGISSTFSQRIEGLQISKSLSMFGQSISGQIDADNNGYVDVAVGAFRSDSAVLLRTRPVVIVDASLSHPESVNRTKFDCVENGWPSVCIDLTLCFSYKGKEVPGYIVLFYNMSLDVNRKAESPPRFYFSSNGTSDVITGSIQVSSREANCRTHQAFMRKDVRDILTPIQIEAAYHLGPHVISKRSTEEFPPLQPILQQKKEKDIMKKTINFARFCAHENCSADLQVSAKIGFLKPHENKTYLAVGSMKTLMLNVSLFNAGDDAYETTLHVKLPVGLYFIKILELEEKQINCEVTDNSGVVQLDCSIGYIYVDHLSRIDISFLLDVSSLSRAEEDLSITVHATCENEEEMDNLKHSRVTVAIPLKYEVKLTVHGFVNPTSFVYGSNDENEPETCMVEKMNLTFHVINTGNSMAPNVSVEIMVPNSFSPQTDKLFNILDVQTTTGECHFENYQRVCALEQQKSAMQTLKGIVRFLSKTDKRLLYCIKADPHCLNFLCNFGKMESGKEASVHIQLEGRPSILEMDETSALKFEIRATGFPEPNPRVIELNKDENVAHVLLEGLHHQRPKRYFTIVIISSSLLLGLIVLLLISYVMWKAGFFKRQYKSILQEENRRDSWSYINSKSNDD
# Sequence (P05556 21-798): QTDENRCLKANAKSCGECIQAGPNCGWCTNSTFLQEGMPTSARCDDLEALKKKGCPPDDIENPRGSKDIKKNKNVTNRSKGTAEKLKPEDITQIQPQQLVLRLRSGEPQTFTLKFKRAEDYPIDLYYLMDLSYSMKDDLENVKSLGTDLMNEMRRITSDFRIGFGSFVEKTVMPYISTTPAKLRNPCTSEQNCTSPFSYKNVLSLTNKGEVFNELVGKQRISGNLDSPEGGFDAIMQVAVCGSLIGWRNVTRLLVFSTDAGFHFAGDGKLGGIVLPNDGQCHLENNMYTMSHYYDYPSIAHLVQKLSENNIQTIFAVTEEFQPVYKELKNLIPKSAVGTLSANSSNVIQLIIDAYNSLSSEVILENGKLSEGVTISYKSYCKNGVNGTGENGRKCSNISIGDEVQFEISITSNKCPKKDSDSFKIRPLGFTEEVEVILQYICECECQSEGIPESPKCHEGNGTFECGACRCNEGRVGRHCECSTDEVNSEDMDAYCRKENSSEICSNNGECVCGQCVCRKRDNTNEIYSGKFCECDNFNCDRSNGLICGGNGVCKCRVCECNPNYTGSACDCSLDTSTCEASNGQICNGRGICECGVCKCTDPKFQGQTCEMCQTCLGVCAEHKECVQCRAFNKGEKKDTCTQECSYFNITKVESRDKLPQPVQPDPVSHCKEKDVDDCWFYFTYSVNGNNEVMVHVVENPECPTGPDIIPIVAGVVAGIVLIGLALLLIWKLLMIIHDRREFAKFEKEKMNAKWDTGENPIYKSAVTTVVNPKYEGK
# Experimental Details: VLA-4 direct binding assay (VCAM-IgG alkaline phosphatase conjugate binding to Jurkat cells)
# Experimental Parameters: Table 1, Structure-Activity; assay and unit inferred; read-out: Act
Consider the following compounds and their measured pIC50 readings.
Formally, pIC50 is defined as -log10 of the concentration c, with c in mol/L.

| Compound | pIC50 |
| --- | --- |
| COc1ccc(C(CC(=O)O)NC(=O)C(CC(=O)Nc2ccc(NC(=O)Nc3ccccc3)cc2)CC(C)C)cc1 (stereo not shown) [SX23] | 5.88 |
| COc1ccc(CCN2CC(=O)N(CCC(=O)O)Cc3cc(NC(=O)Cc4ccc(NC(=O)Nc5ccccc5C)cc4)ccc32)cc1OC [BX68] | 7.46 |
| Cc1ccccc1NC(=O)Nc1ccc(NC(=O)[C@@H]2CCCN2C(=O)CN(CCC(=O)O)C(=O)c2ccccc2)cc1 [AX35] | 7.07 |
| Cc1ccccc1NC(=O)Nc1ccc(CC(=O)Nc2ccc3c(c2)C(=O)N(CCC(=O)O)CC(=O)N3CCC(=O)O)cc1 [BX39] | 6.32 |
| COCC(C)N1C(=O)CN(CCC(=O)O)C(=O)c2cc(NC(=O)Cc3ccc(NC(=O)Nc4ccccc4C)cc3)ccc21 (stereo not shown) [BX54] | 6.89 |

Enquiry: Given the entry COc1cccc(C(=O)N(CCC(=O)O)CC(=O)N(CCC(C)C)CC(=O)Nc2ccc(N3CCOCC3)c(Cl)c2)c1 [AX9] , what pIC50 was observed with VLA-4 (Homo sapiens, UniProt P05556+P13612)?
Return: 5.13

Enquiry: Kindly state the measured pIC50 obtained for Cc1ccccc1NC(=O)Nc1ccc(NC(=O)CN(CCC(C)C)C(=O)CN(CCC(=O)O)C(=O)COc2ccccc2)cc1 [AX25] with VLA-4 (Homo sapiens, UniProt P05556+P13612).
Return: 6.61

* * *

Entries and their measured IC50 follow.
# Tested On: VLA-4 (Homo sapiens, UniProt P05556+P13612)
# Construct: endogenous in cells
# Experimental Details: VLA-4 direct binding assay (VCAM-IgG alkaline phosphatase conjugate binding to Jurkat cells)
# Experimental Parameters: Table 1, Structure-Activity; assay and unit inferred; read-out: Act
The figure you give is taken to be in µM; do not add the unit.

Enquiry: // query IC50 value for entry COc1ccc(C(CC(=O)O)NC(=O)[C@@H](CC(=O)Nc2ccc(NC(=O)Nc3ccccc3C)cc2)CC(C)C)cc1OC (stereo partly shown)
Return: 0.233

Enquiry: Would you mind telling me what IC50 value was observed for `Cc1ccccc1NC(=O)Nc1ccc(CC(=O)Nc2cccc(CN(CCC(=O)O)C(=O)c3ccccc3)c2)cc1` ?
Return: 0.35

Enquiry: What value of measured IC50 is listed for `Cc1ccccc1NC(=O)Nc1ccc(CC(=O)Nc2ccc(C(=O)O)c(OCCCC(=O)O)c2)cc1` ?
Return: 0.406

Enquiry: Fill in: IC50 of COc1ccc(C(CC(=O)O)NC(=O)C(CC(=O)NCc2ccccc2)CC(C)C)cc1 (stereo not shown) [SX6] is ___
Return: 6.75

* * *

# Tested On: VLA-4 (Homo sapiens, UniProt P05556+P13612)
# Construct: endogenous in cells
# Experimental Details: VLA-4 direct binding assay (VCAM-IgG alkaline phosphatase conjugate binding to Jurkat cells)
# Experimental Parameters: Table 1, Structure-Activity; assay and unit inferred; read-out: Act
Observable: pIC50
Expect pIC50 as a plain number equal to -log10 of the molar concentration.

The examples below pair each entry with its known result.
| Compound | Observable | Data Value |
| --- | --- | --- |
| Cc1ccccc1NC(=O)Nc1ccc(C(=O)NCc2ccc3c(c2)C(=O)N(CCC(=O)O)CC(=O)N3C)cc1 | pIC50 | 6.08 |
| Cc1ccccc1NC(=O)Nc1ccc(NC(=O)c2ccc3c(c2)NC(CC(=O)O)C(=O)N(C)C3)cc1 (stereo not shown) | pIC50 | 6.19 |
| Cc1ccccc1NC(=O)Nc1ccc(NC(=O)CN(CCC(C)C)C(=O)CN(CCC(=O)O)C(=O)N2CCOCC2)cc1 | pIC50 | 7.22 |
| COc1cccc(C(=O)N(CCC(=O)O)CC(=O)N(CCC(C)C)CC(=O)Nc2ccc(NC(=O)c3cc4ccccc4cn3)cc2)c1 | pIC50 | 5.55 |
| COc1ccc([C@H](CC(=O)O)NC(=O)C(CC(=O)Nc2ccc(/C=C/c3ccccc3C)cc2)CC(C)C)cc1OC (stereo partly shown) | pIC50 | 6.47 |

Enquiry: Which pIC50 is listed for Cc1ccccc1NC(=O)Nc1ccc(NC(=O)CN(CCC(C)C)C(=O)CN(CCC(=O)O)C(=O)COc2ccccc2)cc1 [AX34] ?
Return: 7.04

Enquiry: Find the recorded pIC50 belonging to `Cc1ccccc1NC(=O)Nc1ccc(NC(=O)CCC(=O)N[C@H](C)CC(=O)O)cc1` and report it.
Return: 6.33

Taken from patent US6686350B1.
